Taken from paper PMC6030240.

# Tested system: UniProtKB P43405
# Assay: co-crystal structure at […] Å
# Type: biochemical
Quantity name: IC50 (µM)

# Compound, Numeric readout
records = [
    ("CS(=O)(=O)c1ccc(Nc2nc(N[C@H]3CCCC[C@@H]3N)nc3cc[nH]c(=O)c23)cc1 [SKI-O-85]", 0.211),
]

* * *

# Tested system: Spleen tyrosine kinase (SYK) (Homo sapiens, UniProt P43405)
# Assay: co-crystal structure at […] Å
# Assay type: biochemical
pIC50: −log10 of the molar value.

# Compound, pIC50
records = [
    ("Cn1ncc2cc(Nc3nc(N4CCC(O)CC4)nc4cc[nH]c(=O)c34)ccc21 [SKI-G-618]", 7.75),
]
